# MEASUREMENT PROTOCOL: Conversion of prodrug to parent in intestine homogenate
# Format: in vitro ADME
# CONDITIONS: prodrug 1 μM, intestine S9 1 mg protein/mL, 37° C., pH 7.4, 2 h
Mark satisfied only for Prodrug concentration at 2 h values smaller than 0.2 µM; exact matches and larger values are not satisfied.

Illustrative cases are given below, each with its answer.
- COMPOUND: "Cc1cc(Nc2cc(C(F)F)ccn2)nc(-c2ccc([C@](C)(O)[C@H]3CC[C@H](C(=O)OCC[S@@+](C)[O-])CC3)nc2)c1 (single isomer, unassigned)"
  GROUP: "not satisfied"
- COMPOUND: "CCOCCOCCOC(=O)OCOC(=O)[C@H]1CC[C@H]([C@@](C)(O)c2ccc(-c3cc(C)cc(Nc4cc(C(F)F)ccn4)n3)cn2)CC1"
  GROUP: "satisfied"
- COMPOUND: "Cc1cc(Nc2cc(C(F)F)ccn2)nc(-c2ccc([C@](C)(O)[C@H]3CC[C@H](C(=O)OCCOP(=O)(O)O)CC3)nc2)c1"
  GROUP: "not satisfied"

Please state whether Prodrug concentration at 2 h is below 0.2 µM for Cc1cc(Nc2cc(C(F)F)ccn2)nc(-c2ccc([C@](C)(O)[C@H]3CC[C@H](C(=O)OC[N+]4(C)CCOCC4)CC3)nc2)c1.[I-]
not satisfied

Please state whether Prodrug concentration at 2 h is below 0.2 µM for Cc1cc(Nc2cc(C(F)F)ccn2)nc(-c2ccc([C@](C)(O)[C@H]3CC[C@H](C(=O)OCn4cc[n+](C)c4)CC3)nc2)c1
not satisfied

----------
# TARGET DESC: recombinant human GST-Syk (Homo sapiens, UniProt P43405)
# Construct: purchased Carna Biosciences 08-176
# MEASUREMENT PROTOCOL: Homogeneous Time-Resolved Fluorescence (HTRF) assay for the recombinant human Syk enzyme
# Format: biochemical
# CONDITIONS: recombinant human GST-Syk 5 pM, ATP 25 μM, read-out: IC50
pIC50: −log10 of the molar value.
RESULT TYPE: pIC50

Given the entry Cc1cc(Nc2cc(C(F)F)ccn2)nc(-c2ccc([C@](C)(O)[C@H]3CC[C@H](C(=O)OCCCCCCN(C)C)CC3)nc2)c1 [Example 1-25] , what pIC50 was observed with recombinant human GST-Syk (Homo sapiens, UniProt P43405)?
> 9.30

----------
# TARGET DESC: recombinant human GST-Syk (Homo sapiens, UniProt P43405)
# Construct: purchased Carna Biosciences 08-176
# MEASUREMENT PROTOCOL: Homogeneous Time-Resolved Fluorescence (HTRF) assay for the recombinant human Syk enzyme
# Assay type: biochemical
# CONDITIONS: recombinant human GST-Syk 5 pM, ATP 25 μM, read-out: IC50
RESULT TYPE: IC50

- COMPOUND: "Cc1cc(Nc2cc(C(F)F)ccn2)nc(-c2ccc([C@](C)(O)[C@H]3CC[C@H](C(=O)OCC4CCOCC4)CC3)nc2)c1 [Example 1-20]"
  IC50: "34.1 nM"
- COMPOUND: "CCOCCOC(=O)OCOC(=O)[C@H]1CC[C@H]([C@@](C)(O)c2ccc(-c3cc(C)cc(Nc4cc(C(F)F)ccn4)n3)cn2)CC1 [Example 2-6]"
  IC50: "< 0.5 nM"
- COMPOUND: "Cc1cc(Nc2cc(C(F)F)ccn2)nc(-c2ccc([C@](C)(O)[C@H]3CC[C@H](C(=O)OCOC(=O)OCCOCCOCCOCCOP(=O)(O)O)CC3)nc2)c1 [Example 8-1]"
  IC50: "< 0.5 nM"
- COMPOUND: "Cc1cc(Nc2cc(C(F)F)ccn2)nc(-c2ccc([C@](C)(O)[C@H]3CC[C@H](C(=O)OC[N+](C)(C)C(C)c4ccccc4)CC3)nc2)c1 (some centres unmarked) [Example 5-15]"
  IC50: "< 0.5 nM"

Kindly consider the entry below.
What value of IC50 has been reported for the following compound? Cc1cc(Nc2cc(C(F)F)ccn2)nc(-c2ccc([C@](C)(O)[C@H]3CC[C@H](C(=O)OC[N+](C)(C)CCc4ccccn4)CC3)nc2)c1 [Example 5-21]
< 0.5 nM
